test: Lipophilicity, log D of the compound in octanol-water at pH 7.4 by reverse-phase HPLC analysis

SMILES CODE: COC(=O)[C@H]1[C@@H](c2ccc(C)cc2)C[C@@H]2CC[C@H]1N2C/C=C/I
logD: 4.9
//
SMILES CODE: COC(=O)[C@H]1[C@@H](c2ccc(C)cc2)C[C@@H]2CC[C@H]1N2C/C(I)=C/C(F)(F)F
logD: 5.5
//
SMILES CODE: COC(=O)[C@H]1[C@@H](c2ccc(C)cc2)C[C@@H]2CC[C@H]1N2C/C=C(\I)C(F)(F)F
logD: 5.3
//
SMILES CODE: Nc1ccccc1
logD: 0.9

* * *

Ki reference
biological target: Sodium-dependent dopamine transporter (Homo sapiens); assay: Displacement of [3H]WIN35428 from human cloned DAT receptor expressed in human HEK293 cells; format: cell-based; conditions: read-out: pKi (converted)
Sequence (Q01959 whole entry): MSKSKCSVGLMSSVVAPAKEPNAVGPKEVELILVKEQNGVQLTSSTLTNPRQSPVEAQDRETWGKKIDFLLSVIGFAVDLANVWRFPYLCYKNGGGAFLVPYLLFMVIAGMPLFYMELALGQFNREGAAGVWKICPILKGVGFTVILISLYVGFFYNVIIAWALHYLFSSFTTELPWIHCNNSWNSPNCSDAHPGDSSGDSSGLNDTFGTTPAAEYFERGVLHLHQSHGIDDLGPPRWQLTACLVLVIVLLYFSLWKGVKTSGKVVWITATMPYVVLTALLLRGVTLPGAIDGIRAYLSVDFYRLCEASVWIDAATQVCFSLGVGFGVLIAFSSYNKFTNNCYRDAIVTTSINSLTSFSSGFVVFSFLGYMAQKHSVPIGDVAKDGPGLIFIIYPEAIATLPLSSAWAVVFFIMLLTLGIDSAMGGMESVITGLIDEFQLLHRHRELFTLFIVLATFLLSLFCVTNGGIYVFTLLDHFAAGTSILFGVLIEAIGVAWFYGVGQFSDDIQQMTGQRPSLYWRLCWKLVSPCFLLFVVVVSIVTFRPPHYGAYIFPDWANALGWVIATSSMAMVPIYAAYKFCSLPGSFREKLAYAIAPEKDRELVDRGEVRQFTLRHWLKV

MOLECULE: CCCc1ccc([C@H]2C[C@@H]3CC[C@H]([C@H]2C(=O)OC)N3C)cc1I
TESTED ON: Sodium-dependent dopamine transporter (Homo sapiens)
Ki (nM): 501
--
MOLECULE: CCCc1ccc([C@H]2C[C@@H]3CC[C@H]([C@H]2C(=O)OC)N3C)cc1
TESTED ON: Sodium-dependent dopamine transporter (Homo sapiens)
Ki (nM): 501
--
MOLECULE: CCCc1ccc([C@H]2C[C@@H]3CC[C@H]([C@H]2C(=O)OC)N3C/C=C/I)cc1
TESTED ON: Sodium-dependent dopamine transporter (Homo sapiens)
Ki (nM): 372
--
MOLECULE: COC(=O)[C@H]1[C@@H](c2ccc(Cl)c(Cl)c2)C[C@@H]2CC[C@H]1N2C
TESTED ON: Sodium-dependent dopamine transporter (Homo sapiens)
Ki (nM): 6.31
--
MOLECULE: COC(=O)[C@H]1[C@@H](c2ccccc2)C[C@@H]2CC[C@H]1N2C [TROPARIL]
TESTED ON: Sodium-dependent dopamine transporter (Homo sapiens)
Ki (nM): 33.1
--
MOLECULE: COC(=O)[C@H]1[C@@H](c2ccc(C)c(I)c2)C[C@@H]2CC[C@H]1N2
TESTED ON: Sodium-dependent dopamine transporter (Homo sapiens)
Ki (nM): 112
--
MOLECULE: C=C(Br)CN1[C@H]2CC[C@@H]1[C@@H](C(=O)OC)[C@@H](c1ccc(I)cc1)C2
TESTED ON: Sodium-dependent dopamine transporter (Homo sapiens)
Ki (nM): 30.2
--
MOLECULE: COC(=O)[C@H]1[C@@H](c2ccc(C(C)C)cc2)C[C@@H]2CC[C@H]1N2C
TESTED ON: Sodium-dependent dopamine transporter (Homo sapiens)
Ki (nM): 501
--
MOLECULE: CCCCc1ccc([C@H]2C[C@@H]3CC[C@H]([C@H]2C(=O)OC)N3C)cc1
TESTED ON: Sodium-dependent dopamine transporter (Homo sapiens)
Ki (nM): 501
--
MOLECULE: CCCCc1ccc([C@H]2C[C@@H]3CC[C@@H](N3)[C@H]2C(=O)OC)cc1I
TESTED ON: Sodium-dependent dopamine transporter (Homo sapiens)
Ki (nM): 372
--
MOLECULE: O=C(OCCF)[C@H]1[C@@H](c2cccc(/C=C/I)c2)C[C@@H]2CC[C@H]1N2
TESTED ON: Sodium-dependent dopamine transporter (Homo sapiens)
Ki (nM): 275
--
MOLECULE: COC(=O)[C@H]1[C@@H](c2ccc(I)cc2)C[C@@H]2CC[C@H]1N2C/C=C/I
TESTED ON: Sodium-dependent dopamine transporter (Homo sapiens)
Ki (nM): 30.2
--
MOLECULE: COC(=O)[C@H]1[C@@H](c2ccc(C)cc2)C[C@@H]2CC[C@H]1N2C/C=C/I
TESTED ON: Sodium-dependent dopamine transporter (Homo sapiens)
Ki (nM): 17
--
MOLECULE: CCCc1ccc([C@H]2C[C@@H]3CC[C@@H](N3)[C@H]2C(=O)OC)cc1I
TESTED ON: Sodium-dependent dopamine transporter (Homo sapiens)
Ki (nM): 501
--
MOLECULE: O=C(OCCF)[C@H]1[C@@H](c2ccc(/C=C\I)cc2)C[C@@H]2CC[C@H]1N2
TESTED ON: Sodium-dependent dopamine transporter (Homo sapiens)
Ki (nM): 13.2
--
MOLECULE: CC(C)OC(=O)[C@H]1[C@@H](c2ccc(Cl)c(Cl)c2)C[C@@H]2CC[C@H]1N2C
TESTED ON: Sodium-dependent dopamine transporter (Homo sapiens)
Ki (nM): 18.2
--
MOLECULE: C#CCN1[C@H]2CC[C@@H]1[C@@H](C(=O)OC)[C@@H](c1ccc(I)cc1)C2
TESTED ON: Sodium-dependent dopamine transporter (Homo sapiens)
Ki (nM): 14.1
--
MOLECULE: COC(=O)[C@H]1[C@@H](c2ccc(C(C)C)cc2)C[C@@H]2CC[C@H]1N2C/C=C/I
TESTED ON: Sodium-dependent dopamine transporter (Homo sapiens)
Ki (nM): 372
